# method_summary: Disposition and nasal absorption of ANA-TA9 in rats (plasma pharmacokinetics after i.v. bolus, i.v. infusion and i.n. administration)
# Format: in vivo, Male Wistar/ST rats
# particulars: male, Wistar/ST, rat, in vivo, iv, 3 mg/rat
Ends that are not written are not given here.
measured_metric: level at 0.25 h (ng/mL)
Numbers only, in ng/mL.

Indicate its recorded level at 0.25 h; the sequence in question is SKGQAYRMI [ANA-TA9]
172

* * *

# method_summary: Disposition and nasal absorption of ANA-TA9 in rats (plasma pharmacokinetics after i.v. bolus, i.v. infusion and i.n. administration)
# Format: in vivo, Male Wistar/ST rats
# particulars: male, Wistar/ST, rat, in vivo, inhaled or intranasal, 2 mg
Ends that are not written are not given here.
measured_metric: Cmax (ng/mL)
One number for each entry, in ng/mL.

Dear colleague, please send me the reported Cmax for SKGQAYRMI [ANA-TA9] when you can.
863
